# study_system: T1, NPY5R
# T1 sequence (Q15761 1-445, species assumed, looked up): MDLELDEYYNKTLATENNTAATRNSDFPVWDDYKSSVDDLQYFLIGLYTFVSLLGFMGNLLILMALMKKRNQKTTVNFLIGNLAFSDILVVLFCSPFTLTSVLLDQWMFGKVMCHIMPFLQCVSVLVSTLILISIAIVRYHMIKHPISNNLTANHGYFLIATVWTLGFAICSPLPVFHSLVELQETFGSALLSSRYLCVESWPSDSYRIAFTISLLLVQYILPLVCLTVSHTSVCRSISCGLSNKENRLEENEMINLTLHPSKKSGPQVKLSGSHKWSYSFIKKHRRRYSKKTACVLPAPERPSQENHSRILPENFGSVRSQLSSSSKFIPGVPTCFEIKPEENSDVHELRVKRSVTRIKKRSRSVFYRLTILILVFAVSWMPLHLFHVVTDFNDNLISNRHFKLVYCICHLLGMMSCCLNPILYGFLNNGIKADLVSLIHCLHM
# method_summary: cell-based or functional assay
Starred links: 1 amine or outer side, 2 acyl side, 3 side chain; linkers in the order of their positions; H or OH if unused. Non-standard residues stand in square brackets, D forms with d. Groups on a side chain read outwards from the residue. No end group written: not given here. *: point of attachment. C20 diacid = O=C(O)CCCCCCCCCCCCCCCCCCC(=O)*; Phe(4-F) = N[C@@H](Cc1ccc(F)cc1)C(=O)O; Phe(4-Me) = Cc1ccc(C[C@H](N)C(=O)O)cc1; γGlu = O=C(O)[C@H](CCC(=O)[*:2])N[*:1]

| binder | NPY5R pEC50 |
| --- | --- |
| PKPEAPGK([γGlu-γGlu-C20 diacid])DASPEEWTRYYKDLRHYLNWLTRQRF-NH2 [Compound A26] | 8.5 -Log(EC50, M) |
| PKPEAPGK([γGlu-γGlu-C20 diacid])DASPEEWNRYYADLRHYLNWLTRQR[Phe(4-F)]-NH2 [Compound A60] | 8.6 -Log(EC50, M) |
| PKPEAPGK([γGlu-γGlu-C20 diacid])DASPEEWNRYKKDLRHYLNWLTRQRF-NH2 [Compound A69] | 8.3 -Log(EC50, M) |
| PKPEAPGK([γGlu-γGlu-C20 diacid])DASPEEWNRYYADLRHYLNWLTRQR[Phe(4-Me)]-NH2 [Compound A58] | 8.8 -Log(EC50, M) |
| PKPEAPGK([γGlu-γGlu-C20 diacid])DASPKEWNRYYKDLRHYLNWLTRQRF-NH2 [Compound A73] | 8.6 -Log(EC50, M) |
